Assay: Intramuscular pharmacokinetic study of chiral isomers 1 and 2
Assay type: in vivo, male Sprague Dawley (SD) rats
Details: male, Sprague-Dawley, rat, plasma, intramuscular; IM 20 mg/kg, 7 h
METRIC_NAME: concentration at 7 h (ng/mL)
Numbers only, in ng/mL.

stdin: Provide only the value of recorded concentration at 7 h for CCOC(=O)[C@H]1N=C1CCc1ccc(OC)cc1 [Chiral isomer (1-1)]
stdout: 3580

====

Test: Intramuscular pharmacokinetic study of chiral isomers 1 and 2
Format: in vivo, male Sprague Dawley (SD) rats
Conditions: male, Sprague-Dawley, rat, plasma, intramuscular; IM 20 mg/kg, 30 h
METRIC_NAME: concentration at 30 h (ng/mL)
One number for each entry, in ng/mL.

stdin: Provide only the value of recorded concentration at 30 h for CCOC(=O)[C@H]1N=C1CCc1ccc(OC)cc1 [Chiral isomer (1-1)]
stdout: 1550
